Item-by-item account of EC50
# Test system: Human immunodeficiency virus 1
# assayDetails: The activity against HIV mutant strain V82F was determined from patient number 313
# Type: functional, organism-based
The reply should be a number in nM, with the unit left off.

Entry CC(C)c1nc(CN(C)C(=O)N[C@@H](C(=O)N[C@@H](Cc2ccccc2)C[C@H](O)[C@H](Cc2ccccc2)NC(=O)OCc2cncs2)C(C)C)cs1 — recorded EC50 = 43

Entry CC(C)c1nc(CN(C)C(=O)N[C@H](C(=O)N[C@@H](Cc2ccccc2)C[C@H](O)[C@H](Cc2ccccc2)NC(=O)OCc2cncs2)C(C)C)cs1 — recorded EC50 = 123

----------
# Test system: Human immunodeficiency virus 1
# assayDetails: The activity against mutant HIV molecular clone wt (pNL4-3) was determined
# Format: functional, organism-based
valueType: EC50 (nM)
The reply should be a number in nM, with the unit left off.

>  <itemSmiles>
CC(C)c1nc(CN(C)C(=O)N[C@H](C(=O)N[C@@H](Cc2ccccc2)C[C@H](O)[C@H](Cc2ccccc2)NC(=O)OCc2cncs2)C(C)C)cs1

>  <EC50, nM>
55

$$$$

For the next question, use this molecule.
Entry CC(C)c1nc(CN(C)C(=O)N[C@@H](C(=O)N[C@@H](Cc2ccccc2)C[C@H](O)[C@H](Cc2ccccc2)NC(=O)OCc2cncs2)C(C)C)cs1 — recorded EC50 = 137

----------
# System: MT4
# assayDetails: Inhibitory potency towards recombinant HIV-1 3B in MT-4 cell was evaluated in 0% human plasma
# Format: functional, cell-based
Item-by-item account of EC50
The reply should be a number in nM, with the unit left off.

>  <itemSmiles>
CC(C)c1nc(CN(C)C(=O)N[C@H](C(=O)N[C@@H](Cc2ccccc2)C[C@H](O)[C@H](Cc2ccccc2)NC(=O)OCc2cncs2)C(C)C)cs1

>  <EC50 / nM>
90

$$$$

For the next question, use this compound.
Reading of EC50 for CC(C)c1nc(CN(C)C(=O)N[C@@H](C(=O)N[C@@H](Cc2ccccc2)C[C@H](O)[C@H](Cc2ccccc2)NC(=O)OCc2cncs2)C(C)C)cs1 with MT4: 120
